Origin of measurements: patent US20130177981A1

testedOn: gp41 of HIV-1 strain HC4 (HIV-1 strain HC4)
protocolSummary: cell-based or functional assay
Where no end group is shown, it is not given here. [ ]: non-standard residue; d: D form. APC = trans-3-aminopyrrolidine-4-carboxylic acid; ACPC = trans-2-aminocyclopentanecarboxylic acid; β3hR = N=C(N)NCCC[C@H](N)CC(=O)O; β3hT = C[C@@H](O)[C@H](N)CC(=O)O; β3hE = N[C@@H](CCC(=O)O)CC(=O)O; β3hA = C[C@H](N)CC(=O)O
outcomeMeasure: Inhibition of HIV-1 infectivity, IC50 (nM), HC4

binder | number
Ac-[β3hT]TWE[β3hA]WD[β3hR]AIA[β3hE]YA[β3hA]RIE[β3hA]LI[β3hR]AAQ[β3hE]QQ[β3hE]KNE[β3hA]AL[β3hR]EL (also called oligomer 4) [α/β-peptide 4] | 590
Ac-[β3hT]TWE[ACPC]WD[APC]AIA[β3hE]YA[ACPC]RIE[ACPC]LI[APC]AAQ[β3hE]QQ[β3hE]KNE[ACPC]AL[APC]EL-NH2 (Made from 9 by replacing the three β3-hArg residues with APC; also called foldamer 10) [α/β-peptide 10] | 59
Ac-TTWEAWDRAIAEYAARIEALI[β3hR]AAQ[β3hE]QQ[β3hE]KNE[β3hA]AL[β3hR]EL (Chimera of α-peptide 3 and α/β-peptide 4; also called oligomer 5) [(α+α/β)-peptide 5] | 55
Ac-TTWEAWDRAIAEYAARIEALIRAAQEQQEKNEAALREL (also called T-2635; CHR α-peptide 3) [α-peptide 3] | 27
